Test system: Botrytis cinerea
Experiment: Antifungal actiivty against Botryotinia fuckeliana ACCC 30387 assessed as inhibition of radial growth after 3 days
Assay type: functional
Settings: ACCC 30387, 72 h
RECORDED_METRIC: MIC

Example compounds with recorded MIC:
# COMPOUND, MIC
data = [
    ("CC1=C(CO)C(=O)OC1=O", "> 1000 µg/mL"),
    ("O=C1OC(=O)c2c1ccc(Cl)c2Cl", "> 1000 µg/mL"),
]

Moving on to the next compound.
Enter reported MIC observed with Botrytis cinerea for O=C1OC(=O)c2ccccc21 [PHTHALIC ANHYDRIDE]
> 1000 µg/mL
